Entry source: ChEMBL document CHEMBL1146492

Test: Cytotoxicity against HUVEC
Format: cell-based
Conditions: human, HUVEC cells; read-out: ED50 (the source's name)
Items are presented alongside their recorded CC50.

Solved cases below.
# compound, experimentalValue
measured = [
    ("COC(=O)[C@H]1[C@@H](O)[C@@]2(O)c3c(OC)cc(OC)cc3O[C@@]2(c2ccc(OC)cc2)[C@@H]1c1ccccc1", "0.203 µM"),
    ("O=C1C[C@@H](c2ccc(O)c(O)c2)Oc2cc(O)cc(O)c21", "> 1 µM"),
    ("CC(C)=CC[C@@H](O)[C@@H](C)[C@H]1CC[C@H]2C3=CCC4[C@@H](O)[C@@H](O)CC[C@]4(C)[C@H]3CC[C@]12C (some centres not stated)", "> 1 µM"),
]

From here, focus on the item given below.
Fill in the blank: the reported CC50 of C=C(C)[C@@H]1CC[C@]2(C)[C@H](CC[C@@H]3[C@@H]([C@@](C)(O)C/C=C/C(C)(C)O)CC[C@]32C)[C@@]1(C)CCC(=O)OC is ____.
> 1 µM

---

Assay: Cytotoxicity against HUVEC
Assay type: cell-based
Details: human, HUVEC cells; read-out: ED50 (the source's name)
Each item that follows carries a reported CC50.

# compoundStructure, CC50
measured = [
    ("COc1ccc([C@@]23Oc4cc(OC)cc(OC)c4[C@]2(O)[C@H](O)[C@H](C(=O)O)[C@H]3c2ccccc2)cc1", "209 nM"),
]

For C=C(C)[C@@H]1CC[C@]2(C)[C@H](CC[C@@H]3[C@@H]([C@]4(C)CC[C@H](C(C)(C)O)O4)CC[C@]32C)[C@@]1(C)CCC(=O)O , what is its reported CC50?
> 1000 nM

Quick check: CC50 of COc1ccc(-c2oc3cc(OC)cc(O)c3c(=O)c2OC)cc1 ?
> 1000 nM
